# target-of-assay: UniProtKB O52575
# assay-overview: biochemical
# condition-details: inhibition of SXA-catalyzed hydrolysis of 4NPX, pH 5.3, 25° C., I=0.3 M, competitive
Consider the following compounds; for each one, report its Ki.
Please answer using a numeric value trailed by its unit.

What is its Ki for UniProtKB O52575? Entry: `O=C[C@H](O)[C@@H](O)[C@H](O)CO` 7.62 mM

Let us now turn to `O=C[C@H](O)[C@@H](O)[C@H](O)[C@H](O)CO` 79 mM

====

# target-of-assay: UniProt O52575
# assay-overview: SXA-catalyzed hydrolysis of 4NP-glycoside substrates, initial rates (Methods A and B);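 also: initial rates from 4-nitrophenol release, tracked by absorbance over roughly 0.3 min and converted using product-minus-substrate extinction differences, in 1 mL mixtures started by enzyme addition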
# Type: biochemical
# condition-details: read-out: Ki(xylose)
readout-type: Ki

Could you tell me which Ki is on file for O=C[C@H](O)[C@@H](O)[C@H](O)CO [D-xylose] ? 7.4 mM
